- test_system: RcnR (Salmonella enterica, UniProt Q7CPV3)
- Sequence (Q7CPV3 whole entry): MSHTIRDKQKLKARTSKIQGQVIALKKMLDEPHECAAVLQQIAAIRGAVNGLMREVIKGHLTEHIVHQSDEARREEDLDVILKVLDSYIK
measurement_kind: Kd

Would you mind telling me what Kd value was observed for C=O [formaldehyde] ? > 100 µM
